Tested on: Bone marrow derived dendritic cells (BMDCs)
Experiment: In vitro screening of oleamide and analogues: cytokine secretion by LPS-stimulated BMDCs
Type: cell-based, Balb/c mice
Conditions: Table 3; BMDCs, 25 uM compound 1 hour prior to 100 ng/ml LPS, supernatants after 24 hours
Recorded endpoint: +LPS IL-12p40

INSERT INTO measurements (molecule, value_reported) VALUES
  ('CCCCCCCC/C=C\CCCCCCCC(=O)NCc1ccccc1 [Compound 18-2, N-benzyloleamide]', '↑'),
  ('CCCCCCCC/C=C\CCCCCCCC(=O)NCc1ccccc1C(F)(F)F [Compound 35-1, N-(2-(trifluoromethyl)benzyl)oleamide]', '→'),
  ('NC(=O)COCCCCOc1ccccc1 [Compound 50-2, 2-(4-phenoxybutoxy) acetamide]', '→'),
  ('CCCCCCCC/C=C\CCCCCCCC(=O)Nc1ccc(N(C)C)cc1 [Compound 19-2, N-(4-(dimethylamino)phenyl)oleamide]', '→'),
  ('CCCCCCCC/C=C\CCCCCCCC(=O)Nc1cccnc1 [Compound 38-1, N-(pyridin-3-yl) oleamide]', '↓'),
  ('CCCCCCCC/C=C\CCCCCCCC(=O)NCc1ccccc1OC [Compound 23-2, N-(2-methoxybenzyl) oleamide]', '↑'),
  ('CCCCCCCC/C=C\CCCCCCCC(=O)Nc1ccc(N(CC)CC)cc1 [Compound 20-1, N-(4-(diethylamino)phenyl)oleamide]', '→'),
  ('CCCCCCCC/C=C\CCCCCCCC(N)=O [Ole, 9(Z)-Octadecenamide]', '↓'),
  ('CCCCCCCC/C=C\CCCCCCCC(=O)Nc1ccc2ccccc2n1 [Compound 36-2, N-(quinolin-2-yl) oleamide]', '↓'),
  ('CCCCCCCC/C=C\CCCCCCCC(=O)Nc1ccccn1 [Compound 37-1, N-(pyridin-2-yl) oleamide]', '→');

For each entry beneath this line, provide reported +LPS IL-12p40.
1. NC(=O)COCCCOCc1ccccc1 [Compound 51-2, 2-(3-(benzyloxy)propoxy) acetamide]
2. CCCCCCCC/C=C\CCCCCCCC(=O)Nc1ccncc1 [Compound 39-1, N-(pyridin-4-yl) oleamide]

a:
1. ↓
2. ↓
